- MEASUREMENT_DESCRIPTION: AUC (0 to infinity) in ICR mouse at 4 mg/kg, po measured after 15 mins to 24 hrs by HPLC/MS analysis
- Type: ADME, organism-based
- Parameters: dose 4 mg/kg, route oral, time infinity
- ASSAY_CONTEXT: in vivo

# ENTRY_SMILES, UNITS_OF_MEASURE, AUC(0-inf)
measured = [
    ("Cc1cn(-c2cc(NC(=O)c3ccc4c(c3)CN(c3cncnc3)C[C@@H]4C)cc(C(F)(F)F)c2)cn1", "ng·h/mL", 2550),
]

---

- MEASUREMENT_DESCRIPTION: Oral bioavailability in ICR mouse at 4 mg/kg measured after 15 mins to 24 hrs by HPLC/MS analysis
- Assay type: ADME, organism-based
- ASSAY_CONTEXT: in vivo
QUANTITY: bioavailability (%)

# ENTRY_SMILES, QUANTITY, UNITS_OF_MEASURE, OBSERVED
data = [
    ("Cc1cn(-c2cc(NC(=O)c3ccc4c(c3)CN(c3cncnc3)C[C@@H]4C)cc(C(F)(F)F)c2)cn1", "bioavailability", "%", 41.6),
]
